measurement_description: Biodistribution in mice bearing PC-3 tumors
condition_details: Balb/c nu/nu, mouse, muscle, iv, 40 pmol, total radioactivity, Muscle uptake, 24 h pi, n = 4
property_measured: tissue uptake at 24 h

Record request: tissue uptake at 24 h value, item CC(C)C[C@H](NC(=O)C[C@H](O)[C@H](CC(C)C)NC(=O)[C@H](Cc1c[nH]cn1)NC(=O)CN(C)C(=O)[C@@H](NC(=O)[C@H](C)NC(=O)[C@H](Cc1c[nH]c2ccccc12)NC(=O)[C@H](CCC(N)=O)NC(=O)[C@@H](Cc1ccccc1)NC(=O)COCCOCCNC(=O)CCC(C(=O)O)N1CCN(CC(=O)O)CCN(CC(=O)O)CCN(CC(=O)O)CC1)C(C)C)C(N)=O (mixture of isomers) [[^111In]In-AU-RM26-M1, [^111In]In-DOTAGA-PEG2-(Sar^11)RM26, metal not drawn] 0.01 %ID/g

---

measurement_description: in vivo
condition_details: Balb/c nu/nu, mouse, iv, 40 pmol, total radioactivity, Bone uptake
property_measured: tissue uptake at 1 h (%ID/g)
Reply numerically in %ID/g, unit not repeated.

Record request: tissue uptake at 1 h value, item CC(C)C[C@H](NC(=O)C[C@H](O)[C@H](CC(C)C)NC(=O)[C@H](Cc1c[nH]cn1)NC(=O)CNC(=O)[C@@H](NC(=O)[C@H](C)NC(=O)[C@H](Cc1c[nH]c2ccccc12)NC(=O)[C@H](CCC(N)=O)NC(=O)[C@@H](Cc1ccccc1)NC(=O)COCCOCCNC(=O)CCC(C(=O)O)N1CCN(CC(=O)O)CCN(CC(=O)O)CCN(CC(=O)O)CC1)C(C)C)C(N)=O (mixture of isomers) [[^111In]In-DOTAGA-PEG2-RM26, metal not drawn] 0.13

---

measurement_description: Biodistribution in mice bearing PC-3 tumors
condition_details: Balb/c nu/nu, mouse, blood, iv, 40 pmol, total radioactivity, Blood uptake, 4 h pi, n = 4
property_measured: tissue uptake at 4 h (%ID/g)
Reply numerically in %ID/g, unit not repeated.

Record request: tissue uptake at 4 h value, item CC(C)C[C@H](NC(=O)C[C@H](O)[C@H](CC(C)C)NC(=O)[C@H](Cc1c[nH]cn1)NC(=O)CN(C)C(=O)[C@@H](NC(=O)[C@H](C)NC(=O)[C@H](Cc1c[nH]c2ccccc12)NC(=O)[C@H](CCC(N)=O)NC(=O)[C@@H](Cc1ccccc1)NC(=O)COCCOCCNC(=O)CCC(C(=O)O)N1CCN(CC(=O)O)CCN(CC(=O)O)CCN(CC(=O)O)CC1)C(C)C)C(N)=O (mixture of isomers) [[^111In]In-AU-RM26-M1, [^111In]In-DOTAGA-PEG2-(Sar^11)RM26, metal not drawn] 0.11

---

measurement_description: Biodistribution in mice bearing PC-3 tumors
condition_details: Balb/c nu/nu, mouse, lungs, iv, 40 pmol, total radioactivity, Lungs uptake, 24 h pi, n = 4
property_measured: tissue uptake at 24 h (%ID/g)
Reply numerically in %ID/g, unit not repeated.

Record request: tissue uptake at 24 h value, item CC(C)C[C@H](NC(=O)C[C@H](O)[C@H](CC(C)C)NC(=O)[C@H](Cc1c[nH]cn1)NC(=O)CN(C)C(=O)[C@@H](NC(=O)[C@H](C)NC(=O)[C@H](Cc1c[nH]c2ccccc12)NC(=O)[C@H](CCC(N)=O)NC(=O)[C@@H](Cc1ccccc1)NC(=O)COCCOCCNC(=O)CCC(C(=O)O)N1CCN(CC(=O)O)CCN(CC(=O)O)CCN(CC(=O)O)CC1)C(C)C)C(N)=O (mixture of isomers) [[^111In]In-AU-RM26-M1, [^111In]In-DOTAGA-PEG2-(Sar^11)RM26, metal not drawn] 0.03
